Data provenance is patent US9586914B2.

Target: C3a receptor (C3aR) (Homo sapiens)
Construct: peripheral blood mononuclear cells were isolated from buffy coat (obtained from Australian Red Cross Blood Service, Kelvin Grove); endogenous in cells; host or cells: primary human monocyte-derived macrophages (HMDM) differentiated from CD14+ monocytes of donor buffy coat
Sequence (Q16581 1-482): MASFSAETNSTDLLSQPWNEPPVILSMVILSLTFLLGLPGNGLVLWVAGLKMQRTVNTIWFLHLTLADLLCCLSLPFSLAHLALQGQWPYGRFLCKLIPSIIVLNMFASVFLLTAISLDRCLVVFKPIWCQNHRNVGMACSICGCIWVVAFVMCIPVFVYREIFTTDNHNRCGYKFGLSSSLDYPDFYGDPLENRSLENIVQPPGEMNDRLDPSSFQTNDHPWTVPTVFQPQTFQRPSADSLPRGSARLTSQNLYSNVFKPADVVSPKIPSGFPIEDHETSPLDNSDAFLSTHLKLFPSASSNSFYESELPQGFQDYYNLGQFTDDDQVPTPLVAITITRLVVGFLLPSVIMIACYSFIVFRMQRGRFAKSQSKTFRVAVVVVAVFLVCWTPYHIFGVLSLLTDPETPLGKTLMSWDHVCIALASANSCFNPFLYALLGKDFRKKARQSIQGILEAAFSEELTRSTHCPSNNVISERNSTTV
Assay: Competitive binding with [^125I]-C3a in HMDM
Conditions: Table 6; competitive binding with [^125I]-C3a, HMDM; read-out: IC50 (converted)
Measurement kind: IC50 (nM)

Compound	Measurement kind	Reported value
CC[C@H](C)[C@H](NC(=O)c1ccccc1Oc1ccccc1)c1nc(C(=O)N[C@@H](CCCNC(=N)N)C(=O)O)co1	IC50	55
CC(C)C[C@H](NC(=O)OC(C)(C)C)c1nc(C(=O)NC(CCCNC(=N)N)C(=O)O)co1 (some centres unmarked)	IC50	20
CC[C@H](C)[C@H](NC(=O)CCC(=O)c1ccc(-c2ccccc2)cc1)c1nc(C(=O)N[C@@H](CCCNC(=N)N)C(=O)O)co1	IC50	155
CC[C@H](C)[C@H](NC(=O)c1cncc(Br)c1)c1nc(C(=O)N[C@@H](CCCNC(=N)N)C(=O)O)co1	IC50	5
CC(C)(C)OC(=O)N[C@@H](Cc1c[nH]c2ccccc12)c1nc(C(=O)N[C@@H](CCCNC(=N)N)C(=O)O)co1	IC50	2290

[1] CC(C)(C)OC(=O)N[C@@H](Cc1ccccc1)c1nc(C(=O)N[C@@H](CCCNC(=N)N)C(=O)O)co1
[2] NC(N)=NCCC[C@H](NC(=O)COCC(c1ccccc1)c1ccccc1)C(=O)O [SB290157, reference compound]
[3] CC(C)C[C@H](NC(=O)OC(C)(C)C)c1nc(C(=O)N[C@@H](CCCNC(=N)N)C(=O)NS(=O)(=O)c2ccccc2)co1
[4] CC(C)C[C@H](NC(=O)C1c2ccccc2-c2ccccc21)c1nc(C(=O)N[C@@H](CCCNC(=N)N)C(=O)O)co1
Output the entries ranked by IC50 from maximum down to minimum. Could you list the labels in the order requested? 1, 4, 2, 3
(1: 509 nM, 4: 142 nM, 2: 38 nM, 3: 7.5 nM)

[I] Cc1nc(C(c2ccccc2)c2ccccc2)oc1C(=O)N[C@@H](CCCNC(=N)N)C(=O)O
[II] CC(C)Cc1ccc([C@H](C)C(=O)N[C@@H](CC(C)C)c2nc(C(=O)N[C@@H](CCCNC(=N)N)C(=O)O)co2)cc1
[III] Cc1nc([C@H](CC(C)C)NC(=O)OC(C)(C)C)sc1C(=O)N[C@@H](CCCNC(=N)N)C(=O)O
In this exercise, place the 3 compounds in ascending sequence of their recorded IC50. Form entry: ranked labels (order as requested). III, I, II
(III: 375 nM, I: 606 nM, II: 1030 nM)
